These data points were gathered from paper PMC7156736.

procedure.details: plasma pharmacokinetics in patients (HPLC–MS/MS, non-compartmental analysis)
Format: in vivo, human
measurement.parameters: human, plasma, oral, Dose-level 6: dacomitinib 30 mg (4/3) QD + PD-0325901 6 mg BID; last day of concomitant use of both drugs; n = 1; read-out: AUC0-24h dacomitinib, mean (CV%)
quantity.measured: AUC(0-t) (ng·h/mL)
Note: unit ng·h/mL is implicit; provide only the numeric part.

Find the measured AUC(0-t) of COc1cc2ncnc(Nc3ccc(F)c(Cl)c3)c2cc1NC(=O)/C=C/CN1CCCCC1 and report it.
647

* * *

procedure.details: plasma pharmacokinetics in patients (HPLC–MS/MS, non-compartmental analysis)
Assay type: in vivo, human
measurement.parameters: human, plasma, oral, Dose-level -1: dacomitinib 15 mg QD + PD-0325901 2 mg BID; Cycle 1 Day 1; n = 4; read-out: tmax dacomitinib, mean
quantity.measured: Tmax
The reply should consist of the numeric value with the unit placed after it.

Find the measured Tmax of COc1cc2ncnc(Nc3ccc(F)c(Cl)c3)c2cc1NC(=O)/C=C/CN1CCCCC1 and report it.
5.6 h
